assayed-target: T1, cynomolgus IL-36α, truncated (cynomolgus macaque (Macaca fascicularis), UniProt Q9UHA7 14-158 (human entry), limits assumed)
T1 construct: Untagged after removal of the His-SUMO tag; also called cynomolgus IL-36 alpha; cyIL-36alpha
T1 chain: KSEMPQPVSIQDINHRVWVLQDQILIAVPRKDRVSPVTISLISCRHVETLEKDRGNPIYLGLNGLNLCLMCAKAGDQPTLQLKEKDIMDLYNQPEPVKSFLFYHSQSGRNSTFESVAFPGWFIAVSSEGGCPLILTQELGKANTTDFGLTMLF
procedure-details: SPR, Biacore, 1:1 Langmuir fit
property-measured: Kd (nM)

INSERT INTO measurements (binder, measured) VALUES
  ('144D464A LV7a HV10b (antibody, V domains shown, Humanized; also called humanized 144D464A antibody LV7a HV10b) VH: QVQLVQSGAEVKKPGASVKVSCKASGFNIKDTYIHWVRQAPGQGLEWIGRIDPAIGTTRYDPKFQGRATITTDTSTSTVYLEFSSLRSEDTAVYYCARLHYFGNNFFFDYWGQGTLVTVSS VL: QAVVTQEPSLTVSPGGTVTLTCRSSSGAVTTSNYANWVQQKPGQAFAGLIGGTNDRAPGVPARFSGSLLGGKAALTISGAQPEDEADYFCALWFSNHWVFGGGTKLTVL', 1.25),
  ('144D464A LV10re HV10b (antibody, V domains shown, Humanized) VH: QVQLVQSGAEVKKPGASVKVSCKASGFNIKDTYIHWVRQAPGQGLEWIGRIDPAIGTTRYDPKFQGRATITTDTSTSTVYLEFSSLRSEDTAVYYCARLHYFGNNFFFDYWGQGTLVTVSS VL: QAVVTQEPSLTVSPGGTVTLTCRSSSGAVTTSNYANWVQEKPGQLFAGLIGGTNDRAPGVPARFSGSLLGGKAALTLSGAQPEDEAIYFCALWFSNHWVFGGGTKLTVL', 1.12),
  ('144L249B LV9 HV10b (antibody, V domains shown, Humanized) VH: QVQLVQSGAEVKKPGASVKVSCKASGFNIKDTYIYWVRQAPGQGLEWIGRIDPAIGTTRYDPKFQGKATLTTDTSTSTAYLELSSLRSEDTAVYYCARYDYSGSSFYFDYWGQGTLVTVSS VL: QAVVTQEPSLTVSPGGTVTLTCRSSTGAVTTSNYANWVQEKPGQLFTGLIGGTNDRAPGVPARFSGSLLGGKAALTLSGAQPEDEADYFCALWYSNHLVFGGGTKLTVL', 0.944);
